test.target: CK1α (Homo sapiens, UniProt P48729+Q96SW2)
Construct: expressed in transfected cells; host or cells: HEK293T (lentiviral transduction, puromycin selection, FACS sorting)
Sequence (P48729 whole entry): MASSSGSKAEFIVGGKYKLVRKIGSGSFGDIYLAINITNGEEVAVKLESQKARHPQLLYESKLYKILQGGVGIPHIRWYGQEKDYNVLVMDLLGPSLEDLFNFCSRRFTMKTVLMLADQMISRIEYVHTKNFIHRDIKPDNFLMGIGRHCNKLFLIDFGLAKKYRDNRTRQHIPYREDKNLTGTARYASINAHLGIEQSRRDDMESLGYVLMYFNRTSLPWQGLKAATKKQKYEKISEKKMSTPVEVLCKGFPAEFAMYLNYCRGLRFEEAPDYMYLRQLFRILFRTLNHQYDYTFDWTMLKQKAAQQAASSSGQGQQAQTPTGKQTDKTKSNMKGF
Sequence (Q96SW2 whole entry): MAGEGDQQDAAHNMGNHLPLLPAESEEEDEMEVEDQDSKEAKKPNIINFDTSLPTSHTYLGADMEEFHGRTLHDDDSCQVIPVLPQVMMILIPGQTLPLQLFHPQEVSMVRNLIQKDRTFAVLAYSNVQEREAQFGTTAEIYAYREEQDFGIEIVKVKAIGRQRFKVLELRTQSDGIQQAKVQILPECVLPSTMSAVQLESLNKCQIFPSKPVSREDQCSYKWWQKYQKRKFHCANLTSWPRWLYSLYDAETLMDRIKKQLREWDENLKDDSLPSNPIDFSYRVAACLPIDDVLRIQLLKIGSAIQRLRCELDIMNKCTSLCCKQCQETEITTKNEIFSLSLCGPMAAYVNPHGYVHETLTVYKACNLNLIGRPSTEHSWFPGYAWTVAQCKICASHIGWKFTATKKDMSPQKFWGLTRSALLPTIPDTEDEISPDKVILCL
Sequence (Q16531 whole entry partner): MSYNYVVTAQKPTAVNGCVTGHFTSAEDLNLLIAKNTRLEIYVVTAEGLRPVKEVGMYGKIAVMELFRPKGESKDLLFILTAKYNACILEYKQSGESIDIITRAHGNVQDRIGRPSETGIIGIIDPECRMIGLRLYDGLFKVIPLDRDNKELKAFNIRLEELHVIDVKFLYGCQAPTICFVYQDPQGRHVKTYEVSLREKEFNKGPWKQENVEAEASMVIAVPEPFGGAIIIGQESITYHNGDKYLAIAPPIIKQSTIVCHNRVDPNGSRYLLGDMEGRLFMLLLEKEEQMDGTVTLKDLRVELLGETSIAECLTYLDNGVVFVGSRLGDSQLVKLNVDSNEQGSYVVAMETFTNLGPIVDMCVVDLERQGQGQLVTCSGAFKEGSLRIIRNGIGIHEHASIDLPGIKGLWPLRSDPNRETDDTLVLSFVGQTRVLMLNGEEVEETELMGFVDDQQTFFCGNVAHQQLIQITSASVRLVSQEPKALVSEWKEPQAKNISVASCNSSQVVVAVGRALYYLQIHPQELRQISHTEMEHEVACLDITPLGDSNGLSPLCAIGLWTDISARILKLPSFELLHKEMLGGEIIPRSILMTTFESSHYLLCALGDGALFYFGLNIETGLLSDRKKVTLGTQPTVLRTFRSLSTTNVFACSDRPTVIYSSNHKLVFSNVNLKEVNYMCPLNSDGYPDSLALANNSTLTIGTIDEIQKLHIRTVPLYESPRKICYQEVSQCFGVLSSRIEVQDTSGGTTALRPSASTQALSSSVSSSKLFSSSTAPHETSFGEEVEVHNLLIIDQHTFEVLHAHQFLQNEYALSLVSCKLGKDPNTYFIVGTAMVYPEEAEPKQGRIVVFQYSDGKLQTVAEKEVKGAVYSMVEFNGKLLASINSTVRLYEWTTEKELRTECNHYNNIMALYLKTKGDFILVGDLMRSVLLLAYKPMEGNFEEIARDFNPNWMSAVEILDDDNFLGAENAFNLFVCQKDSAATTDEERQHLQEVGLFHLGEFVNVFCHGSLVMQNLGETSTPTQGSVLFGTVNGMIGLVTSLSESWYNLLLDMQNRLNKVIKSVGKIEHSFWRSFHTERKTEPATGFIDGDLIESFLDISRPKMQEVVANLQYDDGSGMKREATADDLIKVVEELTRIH
measurement.protocol: Flow cytometry for measuring degradation, HEK293T GFP-POI reporter cells (CK1α)
Assay type: cell-based
measurement.context: 1 μM, 24 h, HEK293T GFP reporter
attribute.measured: CK1α % degradation at 1 μM (%)
Answers are plain numbers, in %.

Below, each entry is followed by its recorded CK1α % degradation at 1 μM result.
compound	attribute.measured	reported.value
N#Cc1ccc2cc(C(=O)Nc3ccc4c(c3)CN(C3CCC(=O)NC3=O)C4=O)ccc2c1 (stereo not shown)	CK1α % degradation at 1 μM	80.3
O=C1CCC(N2Cc3cc(NC(=O)c4cccc(Oc5ccccc5)c4)ccc3C2=O)C(=O)N1 (stereo not shown)	CK1α % degradation at 1 μM	67.4
CN1C(=O)CCc2cc(C(=O)Nc3ccc4c(c3)CN(C3CCC(=O)NC3=O)C4=O)ccc21 (stereo not shown)	CK1α % degradation at 1 μM	74.1

Continue with the compound presented below.
*Q* Any idea what CK1α % degradation at 1 μM was measured for O=C1CCC(N2Cc3cc(NC(=O)c4ccc5c(c4)OCO5)ccc3C2=O)C(=O)N1 (stereo not shown) ?
*A* 57.6

The measured values listed here are drawn from patent US20260021103A1.
